# ASSAYED_SYSTEM: Oxytocin receptor (Homo sapiens, UniProt P30559)
# Sequence (P30559 whole entry): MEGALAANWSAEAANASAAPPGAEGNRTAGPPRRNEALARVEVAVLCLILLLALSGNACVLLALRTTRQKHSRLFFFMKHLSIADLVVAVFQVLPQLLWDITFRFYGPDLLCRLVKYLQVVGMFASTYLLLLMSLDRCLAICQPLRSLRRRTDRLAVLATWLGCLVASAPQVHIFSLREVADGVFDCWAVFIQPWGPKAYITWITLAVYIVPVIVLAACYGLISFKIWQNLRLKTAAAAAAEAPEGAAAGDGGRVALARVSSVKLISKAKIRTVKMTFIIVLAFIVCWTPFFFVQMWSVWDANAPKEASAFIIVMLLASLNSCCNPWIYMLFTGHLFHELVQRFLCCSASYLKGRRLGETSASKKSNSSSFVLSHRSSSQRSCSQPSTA
# TEST_PROTOCOL: Ability to displace [3H]oxytocin from human OT receptor (hOT)
EXPERIMENTAL_READOUT: Ki (nM)
Numeric only. Scale: nM

Below, each entry is followed by its recorded Ki result.
# CHEMICAL_STRUCTURE, Ki / nM
records = [
    ("Cc1cc(C(=O)N2CCC(N3C(=O)OCc4ccccc43)CC2)cc2ccn(C[C@H]3CCCN3S(C)(=O)=O)c12", 10),
    ("CS(=O)(=O)N1CCC(c2cc3cc(C(=O)N4CCC(N5C(=O)OCc6ccccc65)CC4)ccc3o2)CC1", 79.4),
    ("O=C(c1ccc2ccoc2c1)N1CCC(N2C(=O)OCc3ccccc32)CC1", 398),
]

Then there is this compound:
Dear colleague, please send me the reported Ki for "CN1CCC(=O)N(CC(=O)NCc2cc3cc(C(=O)N4CCC(N5C(=O)OCc6ccccc65)CC4)ccc3o2)C1=O" when you can.
3.98

* * *

# ASSAYED_SYSTEM: Oxytocin receptor (Homo sapiens, UniProt P30559)
# TEST_PROTOCOL: Ability to displace [3H]oxytocin from human OT receptor (hOT)
EXPERIMENTAL_READOUT: log10 Ki (log10 of the value in nM)
The common logarithm of Ki in nM is what is listed.

# CHEMICAL_STRUCTURE, ASSAYED_SYSTEM, RECORDED_VALUE
data = [
    ("CC(=O)N1CCC[C@@H]1c1cc2cc(C(=O)N3CCC(N4C(=O)OCc5ccccc54)CC3)ccc2o1", "Oxytocin receptor (Homo sapiens, UniProt P30559)", 1.40),
    ("O=C(c1ccc2[nH]ccc2c1)N1CCC(N2C(=O)OCc3ccccc32)CC1", "Oxytocin receptor (Homo sapiens, UniProt P30559)", 2.30),
    ("CC(=O)N1CCN(Cc2cc3cc(C(=O)N4CCC(N5C(=O)OCc6ccccc65)CC4)ccc3o2)CC1", "Oxytocin receptor (Homo sapiens, UniProt P30559)", 1.90),
]

Dear colleague, please send me the reported log10 Ki for "Cc1nc(-c2ccncc2)sc1C(=O)N1CCC(N2C(=O)OCc3ccccc32)CC1" when you can.
2.10

Dear colleague, please send me the reported log10 Ki for "O=C(CN1C(=O)CNC1=O)NCc1cc2cc(C(=O)N3CCC(N4C(=O)OCc5ccccc54)CC3)ccc2o1" when you can.
0.80

* * *

# ASSAYED_SYSTEM: Oxytocin receptor (Homo sapiens, UniProt P30559)
# TEST_PROTOCOL: Ability to displace [3H]oxytocin from human OT receptor (hOT)
Classes based on Ki: b0 = under 0.03 µM, b1 = from 0.03 µM up to 0.4 µM, b2 = 0.4 µM and over

Examples from the recorded data:
# COMPOUND, ASSAYED_SYSTEM, CLASS_ASSIGNMENT
data = [
    ("O=C(c1ccc2cc[nH]c2c1)N1CCC(N2C(=O)OCc3ccccc32)CC1", "Oxytocin receptor (Homo sapiens, UniProt P30559)", "b1"),
    ("CC(=O)N(C)CCn1ccc2cc(C(=O)N3CCC(N4C(=O)OCc5ccccc54)CC3)ccc21", "Oxytocin receptor (Homo sapiens, UniProt P30559)", "b1"),
    ("CS(=O)(=O)N1CCC[C@@H]1Cc1coc2cc(C(=O)N3CCC(N4C(=O)OCc5ccccc54)CC3)ccc12", "Oxytocin receptor (Homo sapiens, UniProt P30559)", "b1"),
    ("CC1(C)NC(=O)N(CC(=O)NCc2cc3cc(C(=O)N4CCC(N5C(=O)OCc6ccccc65)CC4)ccc3o2)C1=O", "Oxytocin receptor (Homo sapiens, UniProt P30559)", "b0"),
    ("CN(CCCn1ccc2cc(C(=O)N3CCC(N4C(=O)OCc5ccccc54)CC3)ccc21)S(C)(=O)=O", "Oxytocin receptor (Homo sapiens, UniProt P30559)", "b1"),
]

Which category does the recorded Ki put CC1OC(=O)N(CC(=O)NCc2cc3cc(C(=O)N4CCC(N5C(=O)OCc6ccccc65)CC4)ccc3o2)C1=O (stereo not drawn) in?
b0

Which category does the recorded Ki put "CC(=O)NCCc1cc2cc(C(=O)N3CCC(N4C(=O)OCc5ccccc54)CC3)ccc2o1" in?
b1

* * *

# TEST_PROTOCOL: The pharmacokinetic parameter, clearance was reported in dog after intravenous administration
# Type: ADME, organism-based, Canis lupus familiaris
# MEASUREMENT_CONDITIONS: in vivo
Listed next: entries and their corresponding clearance.
Numeric only. Scale: mL/min/kg

Below, each entry is followed by its recorded clearance result.
# CHEMICAL_STRUCTURE, clearance (mL/min/kg)
measured = [
    ("CC(=O)N1CCN(Cc2cc3cc(C(=O)N4CCC(N5C(=O)OCc6ccccc65)CC4)ccc3o2)CC1", 11),
    ("O=C(Cc1cccnc1)NCc1cc2cc(C(=O)N3CCC(N4C(=O)OCc5ccccc54)CC3)ccc2o1", 49),
    ("CS(=O)(=O)N1CCN(Cc2cc3cc(C(=O)N4CCC(N5C(=O)OCc6ccccc65)CC4)ccc3o2)CC1", 7),
    ("CC(=O)NCc1cc2cc(C(=O)N3CCC(N4C(=O)OCc5ccccc54)CC3)ccc2o1", 8),
    ("O=C(CN1CCCC1=O)NCc1cc2cc(C(=O)N3CCC(N4C(=O)OCc5ccccc54)CC3)ccc2o1", 34),
]

Dear colleague, please send me the reported clearance for "CC(=O)N1CCC[C@@H]1c1cc2cc(C(=O)N3CCC(N4C(=O)OCc5ccccc54)CC3)ccc2o1" when you can.
31

Dear colleague, please send me the reported clearance for "CN(Cc1cc2cc(C(=O)N3CCC(N4C(=O)OCc5ccccc54)CC3)ccc2o1)C(=O)CN1C(=O)CNC1=O" when you can.
15

Dear colleague, please send me the reported clearance for "CC(=O)N1CCC(c2cc3cc(C(=O)N4CCC(N5C(=O)OCc6ccccc65)CC4)ccc3o2)CC1" when you can.
6

* * *

# ASSAYED_SYSTEM: Oxytocin receptor (Homo sapiens)
# TEST_PROTOCOL: Compound was tested for its ability to displace [3H]oxytocin from human Oxytocin receptor
EXPERIMENTAL_READOUT: pKi
Bear in mind: pKi is minus log10 of a mol/L concentration; give just that figure.

Dear colleague, please send me the reported pKi for "CS(=O)(=O)N1CCC[C@H]1Cn1ccc2cc(C(=O)N3CCC(N4C(=O)OCc5ccccc54)CC3)ccc21" when you can.
6.90

* * *

# TEST_PROTOCOL: Bioavailability in dog
# Assay type: ADME, organism-based, Canis lupus familiaris
# MEASUREMENT_CONDITIONS: in vivo
Listed next: entries and their corresponding bioavailability.

Dear colleague, please send me the reported bioavailability for "CC(=O)N1CCC(c2cc3cc(C(=O)N4CCC(N5C(=O)OCc6ccccc65)CC4)ccc3o2)CC1" when you can.
49%

* * *

# ASSAYED_SYSTEM: UniProt P30559
# TEST_PROTOCOL: Ability to displace [3H]oxytocin from human OT receptor (hOT)
Listed next: entries and their corresponding Ki.
Numeric only. Scale: nM

Below, each entry is followed by its recorded Ki result.
# CHEMICAL_STRUCTURE, RECORDED_VALUE
data = [
    ("CS(=O)(=O)NCCn1ccc2cc(C(=O)N3CCC(N4C(=O)OCc5ccccc54)CC3)ccc21", 316),
    ("CC(=O)N1CCC[C@@H]1Cn1ccc2cc(C(=O)N3CCC(N4C(=O)OCc5ccccc54)CC3)ccc21", 158),
    ("CN1CC(=O)N(CC(=O)NCc2cc3cc(C(=O)N4CCC(N5C(=O)OCc6ccccc65)CC4)ccc3o2)C1=O", 3.16),
]

Dear colleague, please send me the reported Ki for "CC(=O)NCC(=O)NCc1cc2cc(C(=O)N3CCC(N4C(=O)OCc5ccccc54)CC3)ccc2o1" when you can.
15.8

* * *

# ASSAYED_SYSTEM: Oxytocin receptor (Homo sapiens, UniProt P30559)
# TEST_PROTOCOL: Ability to displace [3H]oxytocin from human OT receptor (hOT)
EXPERIMENTAL_READOUT: Ki
# include the unit after the value

# COMPOUND, Ki
data = [
    ("Cc1cc2cc(C(=O)N3CCC(N4C(=O)OCc5ccccc54)CC3)ccc2[nH]1", "126 nM"),
    ("Cc1nc(-c2cccs2)ncc1C(=O)N1CCC(N2C(=O)OCc3ccccc32)CC1", "158 nM"),
    ("CC(=O)N1CCCC(c2cc3cc(C(=O)N4CCC(N5C(=O)OCc6ccccc65)CC4)ccc3o2)C1 (centres undefined)", "200 nM"),
    ("Cn1ccc2cc(C(=O)N3CCC(N4C(=O)OCc5ccccc54)CC3)ccc21", "126 nM"),
    ("CS(=O)(=O)N1CCC[C@@H]1Cn1ccc2cc(C(=O)N3CCC(N4C(=O)OCc5ccccc54)CC3)ccc21", "20 nM"),
    ("CC(=O)NCc1cc2cc(C(=O)N3CCC(N4C(=O)OCc5ccccc54)CC3)ccc2o1", "63.1 nM"),
    ("CN(CCn1ccc2cc(C(=O)N3CCC(N4C(=O)OCc5ccccc54)CC3)ccc21)S(C)(=O)=O", "39.8 nM"),
    ("CC(=O)N1CCC(c2cc3cc(C(=O)N4CCC(N5C(=O)OCc6ccccc65)CC4)ccc3o2)CC1", "63.1 nM"),
]

State, for Oxytocin receptor (Homo sapiens, UniProt P30559), measured Ki of the compound listed here: "O=C(c1ccc2occc2c1)N1CCC(N2C(=O)OCc3ccccc32)CC1"
251 nM
